- Test system: BJ
- assayProcedure: Selectivity index, ratio of IC50 for human BJ cells to IC50 for human K562-TAX cells
- Format: functional
Rule: Ratio IC50 under 20 gives not fulfilled, otherwise fulfilled.

# cpdSmiles, answerLabel
rows = [
    ("COC(=O)c1ccc(O)c(/C=N/NC(=O)c2ccc3c4c(ccc3c2)N2Cc3c(ccc5cc(C(=O)N/N=C/c6cc(C(=O)OC)ccc6O)ccc35)N(C4)C2)c1", "not fulfilled"),
    ("COc1ccc(O)c(/C=N/NC(=O)c2ccc3c4c(ccc3c2)N2Cc3c(ccc5cc(C(=O)N/N=C/c6cc(OC)ccc6O)ccc35)N(C4)C2)c1", "fulfilled"),
    ("O=C(N/N=C/c1cc(Cl)ccc1O)c1ccc2c3c(ccc2c1)N1Cc2c(ccc4cc(C(=O)N/N=C/c5cc(Cl)ccc5O)ccc24)N(C3)C1", "not fulfilled"),
    ("COc1cccnc1/C=N/NC(=O)c1ccc2c3c(ccc2c1)N1Cc2c(ccc4cc(C(=O)N/N=C/c5ncccc5OC)ccc24)N(C3)C1", "fulfilled"),
    ("O=C(N/N=C/c1cc(F)ccc1O)c1ccc2c3c(ccc2c1)N1Cc2c(ccc4cc(C(=O)N/N=C/c5cc(F)ccc5O)ccc24)N(C3)C1", "not fulfilled"),
    ("O=C(N/N=C/c1nccc2ccccc12)c1ccc2c3c(ccc2c1)N1Cc2c(ccc4cc(C(=O)N/N=C/c5nccc6ccccc56)ccc24)N(C3)C1", "not fulfilled"),
    ("O=C(NN=C(c1ccccn1)c1ccccn1)c1ccc2c3c(ccc2c1)N1Cc2c(ccc4cc(C(=O)NN=C(c5ccccn5)c5ccccn5)ccc24)N(C3)C1", "not fulfilled"),
]

----------
- assayProcedure: Cytostatic activity against human p53-/- HCT116 cells after 72 hrs by MTT assay
- Assay type: functional, cell-based
- assayContext: HCT-116, 72 h
pIC50: −log10 of the molar value.
Each entry below lists one item and its recorded pIC50 value.

# cpdSmiles, pIC50
rows = [
    ("O=C(N/N=C/c1cc(Cl)ccc1O)c1ccc2c3c(ccc2c1)N1Cc2c(ccc4cc(C(=O)N/N=C/c5cc(Cl)ccc5O)ccc24)N(C3)C1", "< 4.00"),
    ("O=C(N/N=C/c1cc([N+](=O)[O-])ccc1O)c1ccc2c3c(ccc2c1)N1Cc2c(ccc4cc(C(=O)N/N=C/c5cc([N+](=O)[O-])ccc5O)ccc24)N(C3)C1", "< 4.00"),
    ("COc1cccnc1/C=N/NC(=O)c1ccc2c3c(ccc2c1)N1Cc2c(ccc4cc(C(=O)N/N=C/c5ncccc5OC)ccc24)N(C3)C1", "< 4.00"),
]
